Below, each entry is listed with its recorded half-life.
- measurement.description: Rat colon pharmacokinetic study (plasma, colon, colon + fecal content)
- Assay type: in vivo
- applied.conditions: Sprague-Dawley (SD), rat, in vivo; SD rats, 10 mg/kg oral gavage
Respond with a number, then the unit of measure.

- mol: "CC[C@@H](C#N)NC(=O)c1ccc(-c2nc(Nc3cnn(C4CCN(C)CC4)c3)ncc2C)cc1"
  half-life: "0.5 h"

Kindly note the recorded half-life for Cc1cnc(Nc2cnn(CC#N)c2)nc1-c1ccc(C(=O)NCC#N)cc1 , which is 1.6 h

###

- measurement.description: Mouse pharmacokinetic study (intravenous and oral)
- Format: in vivo
- applied.conditions: male, plasma, ICR mice, oral, 5 mg/kg, solution
reported.endpoint: bioavailability (%)
Give the number; % is assumed, so skip it.

GET /value?item= Cc1cnc(Nc2cnn(C3CC(C)(C)OC(C)(C)C3)c2)nc1-c1ccc(C(=O)NCC#N)cc1 &field=bioavailability returns 8.26

###

- measurement.description: Rat colon pharmacokinetic study (plasma, colon, colon + fecal content)
- Type: in vivo
- applied.conditions: Sprague-Dawley (SD), rat; SD rats, 10 mg/kg oral gavage, plasma
reported.endpoint: Cmax (ng/mL)
Reply with just the number (in ng/mL).

- mol: "C[C@@H](C#N)NC(=O)c1ccc(-c2nc(Nc3cnn(C4CCN(C)CC4)c3)ncc2Cl)cc1"
  reported.endpoint: "Cmax"
  quantity.unit: "ng/mL"
  reported: 1.6
- mol: "Cc1cnc(Nc2cnn(C3CCN(C(=O)CO)CC3)c2)nc1-c1ccc(C(=O)N[C@@H](C)C#N)cc1"
  reported.endpoint: "Cmax"
  quantity.unit: "ng/mL"
  reported: 16
- mol: "Cc1cnc(Nc2cnn(CC#N)c2)nc1-c1ccc(C(=O)NCC#N)cc1"
  reported.endpoint: "Cmax"
  quantity.unit: "ng/mL"
  reported: 68.8

Proceed to the following item.
Looking up CC[C@@H](C#N)NC(=O)c1ccc(-c2nc(Nc3cnn(C4CCN(C)CC4)c3)ncc2C)cc1 , I found its Cmax recorded as 9.3

###

- measurement.description: Liver microsomes study, Phase I stability (RLM)
- Assay type: in vitro ADME, rat
- applied.conditions: rat, microsomes, pH 7.4
reported.endpoint: microsomal CLint at 1 μM (µL/min/mg)
Field: numeric (µL/min/mg). Do not append units.

The compound identified as Cc1cnc(Nc2cnn(C3CC4CCC(C3)N4CC(F)(F)F)c2)nc1-c1ccc(C(=O)NCC#N)cc1 (stereo not shown) registered its microsomal CLint at 1 μM at 1950

###

- target.entity: CYP2C19 (Homo sapiens)
- Sequence (P33261 whole entry): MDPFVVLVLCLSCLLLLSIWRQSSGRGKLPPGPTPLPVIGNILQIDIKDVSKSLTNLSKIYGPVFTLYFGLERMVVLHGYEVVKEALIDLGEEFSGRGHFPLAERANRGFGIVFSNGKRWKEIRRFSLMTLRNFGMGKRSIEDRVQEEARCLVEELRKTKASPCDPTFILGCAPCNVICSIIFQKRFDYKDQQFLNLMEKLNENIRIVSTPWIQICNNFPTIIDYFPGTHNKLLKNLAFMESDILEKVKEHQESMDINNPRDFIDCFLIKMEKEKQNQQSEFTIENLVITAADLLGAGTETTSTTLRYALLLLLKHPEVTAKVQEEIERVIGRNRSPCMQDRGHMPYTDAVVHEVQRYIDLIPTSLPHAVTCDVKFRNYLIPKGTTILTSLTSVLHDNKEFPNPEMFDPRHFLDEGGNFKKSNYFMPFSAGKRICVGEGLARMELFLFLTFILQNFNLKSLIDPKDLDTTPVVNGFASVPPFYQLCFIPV
pIC50: −log10 of the molar value.
Reported values of pIC50 for individual entries

Field: example entries. Status: answers known.
- compound: "Cc1cnc(Nc2cnn(CCO)c2)nc1-c1ccc(C(=O)N[C@@H](C)C#N)cc1"
  reported: "< 4.30"
- compound: "Cc1cnc(Nc2cnn(C3CCN(CC#N)CC3)c2)nc1-c1ccc(C(=O)NCC#N)cc1"
  reported: "< 4.30"
- compound: "Cc1cnc(Nc2cnn(C3CCC(O)CC3)c2)nc1-c1ccc(C(=O)NCC#N)cc1 (stereo not drawn)"
  reported: 4.98
- compound: "Cc1cnc(Nc2cnn(CC#N)c2)nc1-c1ccc(C(=O)NCC#N)cc1"
  reported: "< 4.30"
- compound: "C[C@@H](C#N)NC(=O)c1ccc(-c2nc(Nc3cnn(C4CCN(C)CC4)c3)ncc2Cl)cc1"
  reported: "< 4.30"

Per the reported CYP2C19 (Homo sapiens) data, CC[C@@H](C#N)NC(=O)c1ccc(-c2nc(Nc3cnn(CCO)c3)ncc2Cl)cc1 has pIC50 of < 4.30

For Cc1cnc(Nc2cnn(C3CC(C)(C)OC(C)(C)C3)c2)nc1-c1ccc(C(=O)NCC#N)cc1 on CYP2C19 (Homo sapiens), measured pIC50 was 5.20

Item: Cc1cnc(Nc2cnn(CCO)c2)nc1-c1ccc(C(=O)N[C@H](C#N)C2CC2)cc1 | System: CYP2C19 (Homo sapiens) | pIC50: < 4.30

Lab note: compound CC[C@@H](C#N)NC(=O)c1ccc(-c2nc(Nc3cn[nH]c3)ncc2Cl)cc1 tested on CYP2C19 (Homo sapiens); recorded pIC50 was 5.12
